- protocol text: qHTS for inhibitors of binding or entry into cells for Marburg Virus
- run conditions: Marburg virus pseudotyped entry inhibition, cell reporter; series mostly up to 37.8 µM
Out of some 300,000 compounds screened, about 5,400 (1.8%) were called active. Another 28% or so got no clear call; they are omitted. Calls follow the shape of the full dose curve; tested in HEK293 cells. What follows is part of a selection rich in actives, with near analogues and random picks from the rest.
Labels: TRUE (active), FALSE (inactive)

INSERT INTO results (molecule, assigned_label) VALUES
  ('COc1ccc(CCn2ccc(O)c(Cc3ccc(Cl)cc3Cl)c2=O)cc1OC', 'TRUE'),
  ('COc1cc(/C=N/NC(=O)c2ccccc2)ccc1OS(=O)(=O)c1ccccc1', 'TRUE'),
  ('COc1ccc(C(=O)Nc2ccccc2C(=O)N/N=C/c2ccccc2OC)cc1', 'FALSE'),
  ('CCOC(=O)C1(Cc2ccccc2C)CCCN(C(=O)CCc2c(C)noc2C)C1 (stereo not drawn)', 'FALSE'),
  ('Cc1cccc(NC(=O)C2CCN(S(=O)(=O)c3c(C)noc3/C=C/c3ccco3)CC2)c1', 'FALSE'),
  ('COCCNC(=O)COc1ccc(N(C)S(=O)(=O)c2ccc3ccccc3c2)cc1', 'FALSE'),
  ('O=C(O)c1ccc(/C=N/Nc2nc(N3CCCCC3)nc(N3CCCCC3)n2)cc1', 'FALSE'),
  ('Cc1cc(Br)ccc1NC(=O)CN(C)C(=O)CN1C(=O)NC2(CCCC2)C1=O', 'FALSE'),
  ('CN(CC(=O)Nc1ccc(C(N)=O)cc1)S(=O)(=O)c1ccc2c(c1)OCCO2', 'FALSE'),
  ('Cc1cc(C)nc(N/N=C/c2ccncc2)n1', 'FALSE'),
  ('COCCN1C(=O)N(c2ccc(Cl)cc2)C(=O)C1CC(=O)Nc1cc(OC)cc(OC)c1 (stereo not drawn)', 'FALSE'),
  ('COc1ccccc1C(=O)NCCC(=O)NC(C)CCc1ccccc1 (stereo not drawn)', 'FALSE'),
  ('Cc1cc(NC(=O)CSc2nnnn2-c2ccc(F)cc2)no1', 'FALSE'),
  ('Cc1cc(N2CCN(c3ccccc3)CC2)nc(N2CCOCC2)n1', 'FALSE'),
  ('COc1ccccc1N(CC(=O)Nc1c(C)n(C)n(-c2ccccc2)c1=O)S(=O)(=O)c1ccccc1', 'FALSE'),
  ('CN1CCN(C(=O)c2cnn(-c3ccccc3)c2NC(=O)c2ccc([N+](=O)[O-])cc2)CC1', 'FALSE'),
  ('COc1ccc(C(=O)Nc2ccccc2C(=O)N/N=C/c2ccc(O)c(OC)c2)cc1', 'TRUE'),
  ('CC(C)Cn1c(=O)c2ccccc2n2c(CCC(=O)NCc3ccccn3)nnc12', 'FALSE'),
  ('CC(C)CC1(C)NC(=O)N(CC(=O)Nc2ccc3c(c2)OCCO3)C1=O (stereo not drawn)', 'FALSE'),
  ('Cc1cc(C)cc(NC(=O)CCN2C(=O)c3ccccc3C2=O)c1', 'FALSE'),
  ('CCOc1ccc(CCNC(=O)Cn2nc(CC)n3c(cc4sc(CC)cc43)c2=O)cc1OCC', 'FALSE'),
  ('Cc1ccc2[nH]cc(CCCN3C(=O)c4ccccc4C3=O)c2c1', 'TRUE'),
  ('CCOC(=O)C1CCN(C(=O)CN2C(=O)c3cccnc3Oc3ccc(C)cc32)CC1', 'FALSE'),
  ('COc1ccc(/C=N/S(=O)(=O)c2ccccc2)cc1OC', 'FALSE'),
  ('Cc1ccc2[nH]cc(CCNC(=O)c3ccc([N+](=O)[O-])cc3)c2c1', 'FALSE'),
  ('CC(C)OC(=O)c1ccc(NCc2cc(O)ccc2O)cc1Cl', 'TRUE'),
  ('COc1cc(/C=N/NC(=O)Nc2ccccc2)ccc1OCCOc1ccccc1C', 'TRUE'),
  ('C(=N/Nc1cc(N2CCOCC2)nc(N2CCOCC2)n1)/c1ccccc1', 'TRUE'),
  ('CCOc1cc(/C=N/NC(=O)OC)ccc1OCCSc1ccc(Cl)cc1', 'FALSE'),
  ('CC(C)NC(=O)c1ccc(Cl)cc1Cl', 'FALSE'),
  ('Cc1cccc(CN2CCC(n3nccc3NC(=O)c3ccccc3C)CC2)n1', 'FALSE'),
  ('Cc1c(C(=O)NCCN2CCOCC2)sc2nc(-c3ccc(F)cc3)cn12', 'FALSE'),
  ('COc1cc(/C=N/NC(=O)c2ccc(N3CCCC3=O)cc2)ccc1O', 'FALSE'),
  ('CC(OC(=O)c1ccc(Cl)cc1O)C(=O)NCCC1=CCCCC1 (stereo not drawn)', 'FALSE'),
  ('CCCOc1ccc(Cn2ccnc2)cc1[N+](=O)[O-]', 'FALSE'),
  ('CCN(CC)c1ccc(/C=N/Nc2nc(C)cc(=O)[nH]2)cc1', 'FALSE'),
  ('COc1ccc(CCNC(=O)CCc2ccccc2O)cc1OC', 'FALSE'),
  ('CCNc1nc(NCC)nc(N/N=C/c2ccc(O)c(OC)c2)n1', 'FALSE'),
  ('CCCCCOc1ccc(CSC2=NCCN2)cc1[N+](=O)[O-]', 'FALSE'),
  ('O=C1NC(=O)C(CCc2ccccc2)(c2ccccc2)N1 (stereo not drawn)', 'FALSE'),
  ('COC(=O)c1ccc(COc2ccc(/C=N/NC(=O)C(=O)Nc3ccc(OC)cc3)cc2OC)o1', 'FALSE'),
  ('COc1ccc(CCNC(=O)CCCn2c(=O)c3ccccc3n(Cc3ccc(F)cc3Cl)c2=O)cc1OC', 'FALSE'),
  ('COc1cc(C=NNC(=O)c2cccnc2)ccc1OC(=O)c1ccccc1F', 'FALSE');
